Each recorded value in this set is attributed to PubChem BioAssay AID1963430.

Reported values of viability, T/C for individual entries
# System: 521955-158-R2-J5-PDC complex spheroid growth, % test/control
# MEASUREMENT_PROTOCOL: Anticancer human tumor 521955-158-R2-J5-PDC patient-derived pancreatic carcinoma cell line growth inhibition [Asc]
# MEASUREMENT_PARAMETERS: second compound 0.1 µM; first compound 0.001 µM; stronger effect = lower value
Your answer should be a plain number; it is taken to be in %.

Worked examples, 3 molecules total:
Cn1ncnc1[C@H]1c2n[nH]c(=O)c3cc(F)cc(c23)N[C@@H]1c1ccc(F)cc1 + Cc1c(S(C)(=O)=O)c(-c2cc(F)cc(N3CCN(c4ccc(NS(=O)(=O)c5ccc(NC(CCN6CCC(C(=O)OCCCP(=O)(O)O)CC6)CSc6ccccc6)c(S(=O)(=O)C(F)(F)F)c5)cc4)CC3)c2)c(-c2ccc(Cl)cc2)n1C(C)C = 80.7
Cn1ncnc1[C@H]1c2n[nH]c(=O)c3cc(F)cc(c23)N[C@@H]1c1ccc(F)cc1 + CNC(C)C(=O)NC1CN(S(=O)(=O)c2cccc(S(=O)(=O)N3CCC4CCC(C(=O)NC(c5ccccc5)c5ccccc5)N4C(=O)C(NC(=O)C(C)NC)C3)c2)CCC2CCC(C(=O)NC(c3ccccc3)c3ccccc3)N2C1=O = 108
NC1CCC(NC2CC2c2ccccc2)CC1 (centres undefined) + CNC(C)C(=O)NC1CN(S(=O)(=O)c2cccc(S(=O)(=O)N3CCC4CCC(C(=O)NC(c5ccccc5)c5ccccc5)N4C(=O)C(NC(=O)C(C)NC)C3)c2)CCC2CCC(C(=O)NC(c3ccccc3)c3ccccc3)N2C1=O = 83.7

Exercise: # get_value(readout='viability, T/C', item= NC1CCC(NC2CC2c2ccccc2)CC1 (centres undefined) + Cc1c(S(C)(=O)=O)c(-c2cc(F)cc(N3CCN(c4ccc(NS(=O)(=O)c5ccc(NC(CCN6CCC(C(=O)OCCCP(=O)(O)O)CC6)CSc6ccccc6)c(S(=O)(=O)C(F)(F)F)c5)cc4)CC3)c2)c(-c2ccc(Cl)cc2)n1C(C)C )
Key: 46.2

----------
Below, each of the compounds is paired with its reported viability, T/C value.
# Tested on: 521955-158-R2-J5-PDC complex spheroid growth, % test/control
# MEASUREMENT_PROTOCOL: Anticancer human tumor 521955-158-R2-J5-PDC cell line growth inhibition [Asc];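 further: spheroids exposed to agents for 7 days before readout; 100% = DMSO vehicle control viability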
# MEASUREMENT_PARAMETERS: second compound 3.16 µM; first compound 10 µM; stronger effect = lower value
Give just the number in %; leave the unit off.

Exercise: Field request: viability, T/C | item: C=C(F)C(=O)N1CCN(c2nc(OCC3CCCN3C)nc3c2CCN(c2cccc4cccc(Cl)c24)C3)CC1CC#N (centres undefined) + Cc1c(S(C)(=O)=O)c(-c2cc(F)cc(N3CCN(c4ccc(NS(=O)(=O)c5ccc(NC(CCN6CCC(C(=O)OCCCP(=O)(O)O)CC6)CSc6ccccc6)c(S(=O)(=O)C(F)(F)F)c5)cc4)CC3)c2)c(-c2ccc(Cl)cc2)n1C(C)C
Key: 0.23

Exercise: Endpoint output: viability, T/C of O=C(c1cc(Cc2n[nH]c(=O)c3ccccc23)ccc1F)N1CCN(C(=O)C2CC2)CC1 + Cc1c(S(C)(=O)=O)c(-c2cc(F)cc(N3CCN(c4ccc(NS(=O)(=O)c5ccc(NC(CCN6CCC(C(=O)OCCCP(=O)(O)O)CC6)CSc6ccccc6)c(S(=O)(=O)C(F)(F)F)c5)cc4)CC3)c2)c(-c2ccc(Cl)cc2)n1C(C)C . Value?
Key: 49.8

Exercise: I am curious: what viability, T/C value has been reported for C=CC(=O)N1CCN(c2nc(=O)n(-c3c(C)ccnc3C(C)C)c3nc(-c4c(O)cccc4F)c(F)cc23)C(C)C1 (centres undefined) + Cc1c(S(C)(=O)=O)c(-c2cc(F)cc(N3CCN(c4ccc(NS(=O)(=O)c5ccc(NC(CCN6CCC(C(=O)OCCCP(=O)(O)O)CC6)CSc6ccccc6)c(S(=O)(=O)C(F)(F)F)c5)cc4)CC3)c2)c(-c2ccc(Cl)cc2)n1C(C)C ?
Key: 80.3

Exercise: For the compound shown here, C#Cc1c(F)ccc2cc(O)cc(-c3ncc4c(N5CC6CCC(C5)N6)nc(OCC56CCCN5CC(F)C6)nc4c3F)c12 (centres undefined) + Cc1c(S(C)(=O)=O)c(-c2cc(F)cc(N3CCN(c4ccc(NS(=O)(=O)c5ccc(NC(CCN6CCC(C(=O)OCCCP(=O)(O)O)CC6)CSc6ccccc6)c(S(=O)(=O)C(F)(F)F)c5)cc4)CC3)c2)c(-c2ccc(Cl)cc2)n1C(C)C , give the reported viability, T/C.
Key: 44.7
